Values were extracted from paper PMC6420155.

- MEASURED TARGET: T1, M2 muscarinic acetylcholine receptor, C-terminally tagged with Renilla luciferase variant 8, P08172
- T1 chain: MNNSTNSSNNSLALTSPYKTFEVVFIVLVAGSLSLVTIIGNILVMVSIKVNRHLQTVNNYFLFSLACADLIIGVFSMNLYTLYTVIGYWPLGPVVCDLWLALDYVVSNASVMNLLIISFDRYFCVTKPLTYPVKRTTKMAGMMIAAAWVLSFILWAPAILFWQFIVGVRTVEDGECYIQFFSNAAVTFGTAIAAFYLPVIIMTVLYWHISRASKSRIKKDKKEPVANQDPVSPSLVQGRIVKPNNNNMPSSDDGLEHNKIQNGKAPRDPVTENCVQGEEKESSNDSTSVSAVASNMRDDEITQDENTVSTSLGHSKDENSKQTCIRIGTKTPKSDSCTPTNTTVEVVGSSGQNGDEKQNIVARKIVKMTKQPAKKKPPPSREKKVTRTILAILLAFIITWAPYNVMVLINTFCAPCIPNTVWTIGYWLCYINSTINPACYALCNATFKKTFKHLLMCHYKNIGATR
- ASSAY TEXT: BRET
- TEST PARAMETERS: chain shown with the change; HEK293 arrestin 2/3 KO cells; agonist-induced minus basal BRET; average at 10 and 15 min; parent: est. 0.029; read off a plot
OBSERVABLE: response
Reply with the value as a number alone.

# response (binder: Venus-tagged arrestin-3 A87V base mutant, P32120 G65P (protein) MGEKPGTRVFKKSSPNCKLTVYLGKRDFVDHLDKVDPVDGVVLVDPDYLKDRKVFVTLTCAFRYPREDLDVLGLSFRKDLFIANYQVFPPTPNPPRPPTRLQERLLRKLGQHAHPFFFTIPQNLPCSVTLQPGPEDTGKACGVDFEIRAFCAKSLEEKSHKRNSVRLVIRKVQFAPEKPGPQPSAETTRHFLMSDRSLHLEASLDKELYYHGEPLNVNVHVTNNSTKTVKKIKVSVRQYADICLFSTAQYKCPVAQVEQDDQVSPSSTFCKVYTITPLLSNNREKRGLALDGKLKHEDTNLASSTIVKEGANKEVLGILVSYRVKVKLVVSRGGDVSVELPFVLMHPKPHDHIALPRPQSAA ) is 0.023

# response (binder: Venus-tagged arrestin-3 A87V base mutant, P32120 K313A (protein) MGEKPGTRVFKKSSPNCKLTVYLGKRDFVDHLDKVDPVDGVVLVDPDYLKDRKVFVTLTCAFRYGREDLDVLGLSFRKDLFIANYQVFPPTPNPPRPPTRLQERLLRKLGQHAHPFFFTIPQNLPCSVTLQPGPEDTGKACGVDFEIRAFCAKSLEEKSHKRNSVRLVIRKVQFAPEKPGPQPSAETTRHFLMSDRSLHLEASLDKELYYHGEPLNVNVHVTNNSTKTVKKIKVSVRQYADICLFSTAQYKCPVAQVEQDDQVSPSSTFCKVYTITPLLSNNREKRGLALDGKLKHEDTNLASSTIVKEGANAEVLGILVSYRVKVKLVVSRGGDVSVELPFVLMHPKPHDHIALPRPQSAA ) is 0.032

# response (binder: Venus-tagged arrestin-3 A87V base mutant, P32120 F245A (protein) MGEKPGTRVFKKSSPNCKLTVYLGKRDFVDHLDKVDPVDGVVLVDPDYLKDRKVFVTLTCAFRYGREDLDVLGLSFRKDLFIANYQVFPPTPNPPRPPTRLQERLLRKLGQHAHPFFFTIPQNLPCSVTLQPGPEDTGKACGVDFEIRAFCAKSLEEKSHKRNSVRLVIRKVQFAPEKPGPQPSAETTRHFLMSDRSLHLEASLDKELYYHGEPLNVNVHVTNNSTKTVKKIKVSVRQYADICLASTAQYKCPVAQVEQDDQVSPSSTFCKVYTITPLLSNNREKRGLALDGKLKHEDTNLASSTIVKEGANKEVLGILVSYRVKVKLVVSRGGDVSVELPFVLMHPKPHDHIALPRPQSAA ) is 0.031
